- Test summary: Pharmacokinetics in SD rats, intravenous injection or intragastric administration
- Type: in vivo
- Test parameters: male, Sprague-Dawley, rat, plasma, oral (3 mg/kg), read-out: residence time MRT
Please provide measured MRT for the entries that follow.

Please review the following examples before continuing.
O=C(O)c1cc(N2CCCOc3ccc(F)cc32)ncc1-c1nc2ccc(F)cc2o1 | 5.2 h
O=C(O)c1cc(N2CCCOc3ccc(F)cc32)ncc1-c1nc2cc(F)ccc2o1 | 4.7 h

We now examine a further compound.
Need MRT, item O=C(O)c1cc(N2CCCOc3ccc(F)cc32)ncc1-c1nc2ccccc2o1
6.1 h

----------
- Test summary: Pharmacokinetics in SD rats, intravenous injection or intragastric administration
- Assay type: in vivo
- Test parameters: injection (1 mg/kg)
Define the label as true when area under curve AUO0-∞ is strictly less than 10000 ng·h/mL and as false in all remaining cases.

For orientation, consider the following solved cases.
N#Cc1ccc2nc(-c3cnc(N4CCCOc5ccc(F)cc54)cc3C(=O)O)oc2c1 [Compound 16] | false
O=C(O)c1cc(N2CCCOc3ccc(F)cc32)ncc1-c1nc2ccc(F)cc2o1 [Compound 15] | false
O=C(O)c1cc(N2CCCOc3ccc(F)cc32)ncc1-c1nc2ccccc2o1 [Compound 12] | false

Hello, is area under curve AUO0-∞ of the following compound strictly smaller than 10000 ng·h/mL? COc1ccc2c(c1OCc1ccccc1)C[C@@H](C(=O)O)N(C(=O)C(c1ccccc1)c1ccccc1)C2 [olodanrigan, reference compound]
true

In plain terms, does O=C(O)c1cc(N2CCCOc3ccc(F)cc32)ncc1-c1nc2cc(F)ccc2o1 [Compound 14] come in under 10000 ng·h/mL for area under curve AUO0-∞?
false
